Target: Bromodomain adjacent to zinc finger domain protein 2B (Homo sapiens) (UniProt Q9UIF8)
Sequence (Q9UIF8 whole entry, looked up, the tested form may be a part): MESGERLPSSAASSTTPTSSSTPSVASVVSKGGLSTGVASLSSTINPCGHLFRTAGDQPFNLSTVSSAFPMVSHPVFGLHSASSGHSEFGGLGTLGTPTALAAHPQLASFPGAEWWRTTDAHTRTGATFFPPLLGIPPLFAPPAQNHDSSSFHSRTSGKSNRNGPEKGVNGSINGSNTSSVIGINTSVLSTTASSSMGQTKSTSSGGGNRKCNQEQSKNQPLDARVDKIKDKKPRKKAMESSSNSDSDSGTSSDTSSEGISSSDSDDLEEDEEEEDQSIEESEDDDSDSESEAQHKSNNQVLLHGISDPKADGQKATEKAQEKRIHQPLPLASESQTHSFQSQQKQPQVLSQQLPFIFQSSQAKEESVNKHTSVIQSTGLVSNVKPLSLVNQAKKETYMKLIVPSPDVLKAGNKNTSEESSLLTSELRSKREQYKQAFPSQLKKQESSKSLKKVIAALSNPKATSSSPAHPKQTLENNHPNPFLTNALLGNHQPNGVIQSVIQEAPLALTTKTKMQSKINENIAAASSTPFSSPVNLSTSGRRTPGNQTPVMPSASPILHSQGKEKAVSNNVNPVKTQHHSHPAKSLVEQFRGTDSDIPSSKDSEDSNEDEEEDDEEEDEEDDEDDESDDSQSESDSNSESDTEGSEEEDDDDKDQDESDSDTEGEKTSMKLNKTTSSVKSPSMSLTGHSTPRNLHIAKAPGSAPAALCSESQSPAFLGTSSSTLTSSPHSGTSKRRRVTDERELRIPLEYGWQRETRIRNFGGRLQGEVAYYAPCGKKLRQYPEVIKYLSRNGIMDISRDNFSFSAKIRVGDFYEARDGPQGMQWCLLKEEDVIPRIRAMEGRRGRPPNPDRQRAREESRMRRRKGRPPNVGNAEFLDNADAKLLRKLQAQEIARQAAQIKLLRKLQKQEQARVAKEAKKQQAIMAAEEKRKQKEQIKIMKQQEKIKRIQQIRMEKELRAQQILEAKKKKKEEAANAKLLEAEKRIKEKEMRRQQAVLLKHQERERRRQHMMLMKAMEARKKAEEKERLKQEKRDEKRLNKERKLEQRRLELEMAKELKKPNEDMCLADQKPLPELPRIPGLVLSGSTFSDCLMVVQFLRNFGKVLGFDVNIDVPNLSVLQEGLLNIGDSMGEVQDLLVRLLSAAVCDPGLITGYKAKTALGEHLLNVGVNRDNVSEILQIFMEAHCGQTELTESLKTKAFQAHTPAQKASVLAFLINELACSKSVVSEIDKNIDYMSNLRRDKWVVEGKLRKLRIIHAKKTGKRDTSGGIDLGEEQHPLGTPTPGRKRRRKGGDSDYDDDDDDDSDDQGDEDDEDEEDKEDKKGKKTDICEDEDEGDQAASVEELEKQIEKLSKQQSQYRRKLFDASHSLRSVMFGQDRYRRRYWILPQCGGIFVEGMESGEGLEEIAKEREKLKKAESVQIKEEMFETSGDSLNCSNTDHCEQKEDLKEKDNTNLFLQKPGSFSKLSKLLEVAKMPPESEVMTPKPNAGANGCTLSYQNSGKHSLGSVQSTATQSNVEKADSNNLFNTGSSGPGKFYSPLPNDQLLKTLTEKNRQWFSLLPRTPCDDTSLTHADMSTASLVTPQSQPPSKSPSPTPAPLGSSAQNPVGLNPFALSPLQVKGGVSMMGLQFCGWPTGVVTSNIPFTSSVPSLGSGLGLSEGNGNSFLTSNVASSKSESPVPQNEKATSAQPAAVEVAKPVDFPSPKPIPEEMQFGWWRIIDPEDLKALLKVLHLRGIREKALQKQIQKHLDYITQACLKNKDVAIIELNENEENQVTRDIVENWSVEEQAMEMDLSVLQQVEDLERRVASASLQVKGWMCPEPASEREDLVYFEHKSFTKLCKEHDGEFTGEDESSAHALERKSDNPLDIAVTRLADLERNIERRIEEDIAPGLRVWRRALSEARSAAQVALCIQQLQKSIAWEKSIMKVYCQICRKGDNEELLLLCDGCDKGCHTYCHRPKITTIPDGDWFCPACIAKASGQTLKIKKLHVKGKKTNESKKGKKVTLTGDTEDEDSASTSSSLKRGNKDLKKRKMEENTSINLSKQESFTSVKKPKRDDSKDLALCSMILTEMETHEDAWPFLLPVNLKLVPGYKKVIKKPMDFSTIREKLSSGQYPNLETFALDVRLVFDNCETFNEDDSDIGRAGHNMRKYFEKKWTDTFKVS
Experiment: qHTS Assay for Inhibitors of BAZ2B; further: nearly all actives have a fitted effect of over 60% in size; further: potency means the concentration at half of the fitted maximal effect
Conditions: AlphaScreen BAZ2B-H3K14Ac peptide displacement; series mostly up to 114 µM
Text: BAZ2B (bromodomain adjacent to zinc finger domain, 2B) belongs to a family of ubiquitously expressed bromodomain containing proteins, which biological function has not yet been elucidated. […] Yasgar, et al. Compound Management for Quantitative High-Throughput Screening. […] Inglese, et al. Quantitative high-throughput screening: a titration-based approach that efficiently identifies biological activities in large chemical libraries. […]
The campaign covered roughly 360,000 compounds. About 16,000 (4.4%) were called active. Inconclusive results (about 9%) are left out. This excerpt belongs to a sample that is enriched for actives.
quantity name: Potency

Observe how each entry below is paired with its result.
O=C(Cc1ccc(S(=O)(=O)N2CCCC2)s1)NC1CCCCCC1    50.1 µM (active)
COc1ccc(-c2csc(-c3c(N)c(C(=O)c4ccc(OC)c(OC)c4)n4ccccc34)n2)cc1    inactive
O=C(NC1CCCCC1)C1CCCN(S(=O)(=O)c2ccc(Br)s2)C1 (stereo not given)    inactive
COc1ccc(CCNC(=O)C(=O)NCC(c2ccco2)S(=O)(=O)c2cccs2)cc1OC (stereo not given)    inactive
Cc1ccc(N2CCN(c3ccc(C)cc3)C2c2ccccn2)cc1    50.1 µM (active)

Quickly give me recorded Potency for "COC(=O)c1ccccc1NC(=O)c1cc(-c2ccccc2O)no1"
inactive

Check the records and state Potency for "Cc1ccc(-n2ccc(=O)c(C(=O)O)n2)cc1"
inactive

For the compound "Cc1ccc(C(=O)NCCSc2c(C)[nH]c3ccccc23)cc1C" , give its reported Potency.
inactive

Please report Potency for the following compound: CC(C)(C)C1CCc2c(sc(NC(=O)c3ccccc3F)c2C(=O)N2CCCCC2)C1 (stereo not given)
inactive

Specify Potency for "Cc1cccc(N2CCN(S(=O)(=O)c3ccc4[nH]c5c(c4c3)CCCCC5)CC2)c1C" and stop.
inactive

* * *

Target: Bromodomain adjacent to zinc finger domain protein 2B (Homo sapiens)
Test: qHTS Assay for Inhibitors of BAZ2B; further: nearly all actives have a fitted effect of over 60% in size
Conditions: AlphaScreen BAZ2B-H3K14Ac peptide displacement; series mostly up to 114 µM
Screen size: about 360,000 compounds; about 16,000 (4.4%) were called active. About 9% were inconclusive and are not listed. Calls follow the shape of the dose curve; as a rule, active = well fitted inhibition curve with a large enough effect; inconclusive = small, poorly fitted or top-dose-only effect; inactive = no such curve, though single readings can be large or run the other way. What follows is part of a selection rich in actives, with near analogues and random picks from the rest.
Lab note: assign the record to one of class 1 for active, class 0 for inactive

What did this assay record as the result for "O=C(CSc1nnc(COc2ccc(Cl)cc2)n1Cc1ccco1)N1CCNC1=O" ?
class 0

# outcome recorded in this test, key = "Cc1cc(-c2ccccc2)n2nc(-c3ccccc3)cc2n1"
class 0

For "Cc1cc2ccccc2n1CCNC(=O)c1ccc(F)cc1" , which call appears in the assay record?
class 0

Kindly provide the recorded test outcome for the following compound: "Cn1c2ccccc2c(=O)c2c(=O)n(Cc3ccco3)c(COc3ccccc3)nc21"
class 1

Answer briefly: the call reported for "CCN(CCCNC(=O)Cn1ncc2c3ccccc3n(C)c2c1=O)Cc1ccccc1" in this assay.
class 0

I'd appreciate the recorded outcome for CCOc1ccc(C2C(C(=O)Nc3ccc(Cl)cc3)=C(C)Nc3nc(C(F)(F)F)nn32)cc1 (configuration not stated) from this test.
class 0

// param item: "Cc1nn2c(=O)cc(COC(=O)c3cccc(NC(=O)COc4ccccc4Cl)c3)nc2s1" ; yields the recorded call
class 0

Hey, what did the test say about "COc1cc(NC(=O)CCn2nc(C)cc2C)cc(OC)c1OC" ?
class 0

Please let me know the test result on file for "CCn1c(CN2CCC(C)CC2)nc2cc(NC(=O)c3ccccc3[N+](=O)[O-])ccc21" .
class 0

For "CCc1ccc(S(=O)(=O)Nc2cc3c(C(=O)OCc4ccccc4)c(C)oc3c3ccccc23)cc1" , what call appears in the results of this test?
class 0

I'd appreciate the recorded outcome for "CCN1CCN(c2ncnc3c2cnn3-c2ccc(C)c(C)c2)CC1" from this test.
class 0

# lookup: test call for "COc1ccccc1CCNC(=O)c1cccn1-c1nnc(N2CCCCC2)s1"
class 0

Record request — test call for "CCCn1c(NCc2ccccc2F)nc2ccccc21"
class 0

Per the assay record, what outcome was assigned to "Cc1nn(Cc2ccc(F)cc2)c(C)c1NC(=O)c1cc(CC(C)C)on1" ?
class 0

Hey, what did the test say about "Cc1ccc(N(CC(=O)NCc2ccc(Cl)cc2)S(=O)(=O)N(C)C)cc1" ?
class 0

Outcome logged for "CCOC(=O)C1CCN(c2nc3c(S(=O)(=O)c4ccc(CC)cc4)nnn3c3ccc(Cl)cc23)CC1" in this assay:
class 0

I would be grateful if you could indicate the recorded call for "O=C(CN1C(=O)COc2ccccc21)Nc1ccc(F)cc1" .
class 1

// outcome(item) with item = "CCCN(CCC)CCCNC(=O)Cn1ncc2c3ccccc3n(Cc3ccccc3)c2c1=O"
class 0

Which outcome did this test record for the compound CC(OC(=O)CN1C(=O)COc2ccccc21)C(=O)NCc1ccc(F)cc1 (configuration not stated) ?
class 0

For "COCn1c(COc2ccccc2)nc2ccccc21" , which call appears in the assay record?
class 0

Entry "O=C(NCCCO)c1nn(-c2ccc(Cl)cc2)nc1CO" : call = ?
class 0

What classification did "CC(C)CC(=O)N1CCN(Cc2ccccc2Br)CC1" end up with in this test?
class 1
